# assay_target: T1, mouse TIGIT on cells (Jurkat-mTIGIT) (mouse, UniProt P86176 29-249)
# T1 construct: whole, on cells
# T1 sequence (looked up): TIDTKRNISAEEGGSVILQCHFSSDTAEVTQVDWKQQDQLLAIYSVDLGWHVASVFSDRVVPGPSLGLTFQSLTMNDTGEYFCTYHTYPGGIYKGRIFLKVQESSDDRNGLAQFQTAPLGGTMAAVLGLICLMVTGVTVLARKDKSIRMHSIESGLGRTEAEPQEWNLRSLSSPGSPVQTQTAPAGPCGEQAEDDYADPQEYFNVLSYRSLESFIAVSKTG
# test: flow cytometry on Jurkat-mTIGIT, 100 nM antibody, vs untransfected Jurkat
// reported Cell binding FON (Fold Over Negative) per item
Give the value in fold over negative but do not write fold over negative after it.

# annotated cases, reported Cell binding FON (Fold Over Negative) shown
(Q) Can you share its Cell binding FON (Fold Over Negative)? I mean this binder: anti-TIGIT antibody clone 29520 (antibody, V domains shown, human IgG; Fab for 'Fab KD' columns) VH: QVQLVESGGGLVQPGRSLRLSCAASGFTFRDYAMHWVRQAPGKGLEWVSGITWNSGLIGYADSVKGRFTISRDNAKNSLYLQMNSLRAEDTALYYCAKPVPRLRGLDVWGQGTMVTVSS VL: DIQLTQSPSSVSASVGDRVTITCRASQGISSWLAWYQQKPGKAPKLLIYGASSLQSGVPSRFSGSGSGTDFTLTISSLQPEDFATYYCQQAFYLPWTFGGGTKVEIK
(A) 535

(Q) Can you share its Cell binding FON (Fold Over Negative)? I mean this binder: anti-TIGIT antibody clone 29527 (antibody, V domains shown, human IgG) VH: QVQLVESGGGVVQPGRSLRLSCAASGFTFSSSYMHWVRQAPGKGLEWVAVIGADGSNKYYADSVEGRFTISRDNSKNTLYLQMNSLRAEDTALYYCAKPVPRRRGLDVWGQGTMVTVSS VL: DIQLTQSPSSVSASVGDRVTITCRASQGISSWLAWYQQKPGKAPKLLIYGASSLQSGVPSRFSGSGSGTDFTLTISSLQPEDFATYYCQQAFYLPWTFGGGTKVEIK
(A) 414

Others:
(Q) Can you share its Cell binding FON (Fold Over Negative)? I mean this binder: anti-TIGIT antibody clone 29523 (antibody, V domains shown, human IgG; Fab for 'Fab KD' columns) VH: EVQLVESGGGVVQPGRSLRLSCAASGFTFGSYYMHWVRQAPGKGLEWVAVIWPDGSNKLYADSVKGRFTISRDNSKNTLYLQMNSLRAEDTALYYCAKPVPKSRALDVWGQGTMVTVSS VL: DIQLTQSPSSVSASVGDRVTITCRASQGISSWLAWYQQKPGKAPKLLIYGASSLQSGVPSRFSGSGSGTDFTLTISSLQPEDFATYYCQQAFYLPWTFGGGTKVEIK
(A) 502
